Target: T1, TNFR1 (Homo sapiens, UniProt P19438)
T1 chain: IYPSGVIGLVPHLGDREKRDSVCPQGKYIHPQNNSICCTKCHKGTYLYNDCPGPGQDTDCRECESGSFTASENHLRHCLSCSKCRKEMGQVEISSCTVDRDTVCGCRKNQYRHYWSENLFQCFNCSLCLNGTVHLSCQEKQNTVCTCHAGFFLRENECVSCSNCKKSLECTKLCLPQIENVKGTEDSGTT
Assay: yeast display SC50
measure: apparent Kd (screen) (nM)

Solved entries (count: 2):
# binder, apparent Kd (screen), nM
data = [
    ("I98Y (designed binder) SMEEEVEKAAKEYEKKKKEAIEKHLEKLKAKDKEAAERFLKELEEAAKEYAKDEAKTMSEEEAKRRAKKYKEKVLLSELSEEEQKEIKEAEEKLVRTYLKYVEEAAK", 5.84),
    ("E4Q (designed binder) SMEQEVEKAAKEYEKKKKEAIEKHLEKLKAKDKEAAERFLKELEEAAKEYAKDEAKTMSEEEAKRRAKKYKEKVLLSELSEEEQKEIKEAEEKLVRTILKYVEEAAK", 0.446),
]

a = K88G (designed binder) SMEEEVEKAAKEYEKKKKEAIEKHLEKLKAKDKEAAERFLKELEEAAKEYAKDEAKTMSEEEAKRRAKKYKEKVLLSELSEEEQKEIGEAEEKLVRTILKYVEEAAK
b = E60G (designed binder) SMEEEVEKAAKEYEKKKKEAIEKHLEKLKAKDKEAAERFLKELEEAAKEYAKDEAKTMSGEEAKRRAKKYKEKVLLSELSEEEQKEIKEAEEKLVRTILKYVEEAAK
Smaller apparent Kd (screen) value? Options are a and b # reply format: chosen label
a
(a: 0.49 nM, b: 1.54 nM)
